Conditions: in ethanol, 303.15 K

{"smiles_entry": "N#CCc1ccccc1[N+](=O)[O-]", "solubility (mole fraction)": 0.0156}

---

Settings: in 2-butanone, 313.15 K

{"smiles_entry": "N#CCc1ccccc1[N+](=O)[O-]", "solubility (mole fraction)": 0.312}

---

Settings: in isopropanol, 323.15 K

{"smiles_entry": "N#CCc1ccccc1[N+](=O)[O-]", "solubility (mole fraction)": 0.0384}

---

Conditions: in n-butanol, 293.15 K

{"smiles_entry": "N#CCc1ccccc1[N+](=O)[O-]", "solubility (mole fraction)": 0.00731}

---

Conditions: in isopropanol, 278.15 K

{"smiles_entry": "N#CCc1ccccc1[N+](=O)[O-]", "solubility (mole fraction)": 0.00411}
